# System: third instar T. ni larvae
# assay-method-text: Leaf disk choice feeding deterrence bioassay
# Assay type: in vivo, Trichoplusia ni
# reported-conditions: Trichoplusia, foliar, feeding deterrence (FD); Table 12, non-toxic feeding deterrents; read-out: % deterrence
I'd be grateful if you could share measured pest or weed control at 50 µg/cm2 for these entries.
Number in %, nothing else.

Qu. Which pest or weed control at 50 µg/cm2 value is on record for CCCOc1ccc(OCCC)cc1 ?
Ans. 96

Qu. Which pest or weed control at 50 µg/cm2 value is on record for C=CCc1cc(OCCC)ccc1OC ?
Ans. 92

Qu. Which pest or weed control at 50 µg/cm2 value is on record for C=CCOc1ccccc1OCCCC ?
Ans. 92

Qu. Which pest or weed control at 50 µg/cm2 value is on record for CCCOc1cccc(OCCC)c1 ?
Ans. 97

====

# Test system: T. ni moths
# assay-method-text: Oviposition choice (deterrence) bioassay on cabbage leaves
# Assay type: in vivo, Trichoplusia ni
# reported-conditions: Trichoplusia, 48 h, Table 8; at 0.25%; read-out: OD (%) Mean ± SE N = 35-40
property-measured: pest or weed control at 0.25 % (%)
Number in %, nothing else.

Qu. Which pest or weed control at 0.25 % value is on record for C=CCOc1ccc(OCCC(C)C)cc1 ?
Ans. -25

Qu. Which pest or weed control at 0.25 % value is on record for C=CCOc1ccccc1OCCCC ?
Ans. 35

Qu. Which pest or weed control at 0.25 % value is on record for C=CCOc1cccc(OC)c1 ?
Ans. 9

Qu. Which pest or weed control at 0.25 % value is on record for C=CCOc1cccc(OCCC(C)C)c1 ?
Ans. 10

Qu. Which pest or weed control at 0.25 % value is on record for CCCCOc1ccccc1OCCC ?
Ans. 37

Qu. Which pest or weed control at 0.25 % value is on record for CCCOc1cccc(OCCC(C)C)c1 ?
Ans. 9

Qu. Which pest or weed control at 0.25 % value is on record for C=CCOc1ccccc1OCCC(C)C ?
Ans. 26

Qu. Which pest or weed control at 0.25 % value is on record for CCCOc1ccc(OCC)cc1 ?
Ans. 10

====

# Tested on: third instar T. ni larvae
# assay-method-text: whole plant or invertebrate
# reported-conditions: contact toxicity to larvae; negative or zero values replaced by 0.1 for the index (footnote b)
# Procedure: Initial screening for feeding deterrent effects was conducted at 50 μg/cm^2 in feeding deterrent bioassays. Mortality was determined 24 h after spraying larvae directly with test solutions. Third instar T. ni larvae were sprayed in 90 mm×15 mm Petri dishes (Falcon) lined with Fisher Scientific filter paper (90 mm diameter). Small plastic hand spraying bottles (50 mL capacity) were used. Larvae were then transferred to Petri dishes (90 mm×15 mm) with a small piece of artificial diet. […]
property-measured: % mortality (%)
Number in %, nothing else.

Qu. Which % mortality value is on record for CCOc1ccc(OCC)cc1 ?
Ans. 100

Qu. Which % mortality value is on record for CCCOc1ccc(OCC)cc1 ?
Ans. 17

Qu. Which % mortality value is on record for C=CCOc1cccc(OCC=C)c1 ?
Ans. 13

Qu. Which % mortality value is on record for CCCOc1cccc(OCCC(C)C)c1 ?
Ans. 10

Qu. Which % mortality value is on record for C=CCOc1ccccc1OCCCC ?
Ans. 19

Qu. Which % mortality value is on record for C=CCc1cc(OCCC)ccc1OC ?
Ans. 6

Qu. Which % mortality value is on record for CCCCOc1ccccc1OCCC ?
Ans. 19
